B1: EDARADD (parent)
chain: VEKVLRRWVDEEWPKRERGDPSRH

# Variants of: B1
# ASSAY: protein stability index of a GFP-peptide fusion (GPS, HEK-293T) (PSI 1-6); higher = more stable;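 also: lentivirally expressed fusions sorted by FACS into six bins by GFP to DsRed ratio, PSI derived from sequencing read proportions per bin multiplied by bin number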
# EXPERIMENTAL SETUP: c terminus: a fixed tail appended
protein stability index of 3 or higher: rule met. Under 3: rule not met.

| CHANGES | ASSIGNED CLASS |
| --- | --- |
| D10W | rule not met |
| E2N | rule met |
| R16Y | rule not met |
| R16T | rule met |
| S22P | rule not met |
| W13C | rule met |
| H24F | rule not met |
| W13A | rule met |
| S22C | rule not met |
| G19C | rule not met |
| W13V | rule met |
| R16M | rule not met |
| D10R | rule not met |
| V4H | rule met |

Where do these numbers come from? They come from the supplement of paper PMC10567573.
